Biological target: human RORγt ligand binding domain (RORγt LBD) (Homo sapiens)
Construct: His-tag (N); TurboTEV protease cleavage site (ENLYFQG) (N)
Sequence (P51449 with tags, fused parts or gaps): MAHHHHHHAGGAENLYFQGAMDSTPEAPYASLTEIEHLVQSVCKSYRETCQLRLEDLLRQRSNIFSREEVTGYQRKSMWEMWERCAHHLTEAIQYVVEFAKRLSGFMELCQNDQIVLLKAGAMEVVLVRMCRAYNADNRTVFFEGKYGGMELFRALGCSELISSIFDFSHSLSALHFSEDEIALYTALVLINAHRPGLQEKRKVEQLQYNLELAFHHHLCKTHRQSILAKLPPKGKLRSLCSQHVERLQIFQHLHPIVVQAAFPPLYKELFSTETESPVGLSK
Assay: RORγt ThermoFluor assay (thermal shift, ligand binding affinity)
Settings: estimated from concentration response of thermal shift
I'd be grateful if you could share measured Kd for these entries.
One number for each entry, in nM.

[
  {
    "compound": "Cc1cc(C(O)(c2ccc(C(F)(F)F)nc2)c2cncn2C)cc2c(C#N)c(-c3ccc(F)cc3)c(C#N)nc12 (single isomer, unassigned) [Example 184c]",
    "parameter": "Kd",
    "readoutValue": 41
  },
  {
    "compound": "Cc1nc(C(O)(c2ccc3nc(Cl)c(-c4ccccc4)c(Cl)c3c2)c2cncn2C)cs1 (centres unmarked)",
    "parameter": "Kd",
    "readoutValue": 560
  }
]

Parameter requested: Kd. Apply to each item below.
1. Cc1cc(C(O)(c2ccnc(C(F)(F)F)c2)c2cncn2C)cc2c(Cl)c(-c3ccccc3)c(Cl)nc12 (centres unmarked)
2. COc1ccc(C(O)(c2ccc3nc(Cl)c(-c4ccccc4)c(Cl)c3c2)c2cncn2C)cn1 (centres unmarked)
3. Cc1ncc(C(O)(c2ccc(Cl)cc2)c2ccc3nc(C#N)c(-c4ccccc4)c(Cl)c3c2)n1C (centres unmarked)
4. N#Cc1nc2ccc(C(O)(c3ccc(C(F)(F)F)nc3)c3cccc(Cl)c3)cc2c(C#N)c1-c1ccccc1 (centres unmarked)
5. Cn1cncc1C(O)(c1ccc2nc(Cl)c(-c3ccccc3)c(Cl)c2c1)c1cnccn1 (centres unmarked)
6. CN1CCCC(C(O)(c2cccnc2)c2ccc3nc(Cl)c(-c4ccccc4)c(Cl)c3c2)C1 (centres unmarked)

// result
1: 6.1; 2: 29; 3: 61; 4: 610; 5: 250; 6: 2400

====

System: IL-17 production by CD4 T cells
Experiment: Human Th17 assay (IL-17 production by CD4 T cells under Th17 differentiation conditions)
Assay type: cell-based
Details: Homo sapiens, CD4+ T, 72 h, IL-17 in supernatant after 3 days
Threshold 60 nM: IC50 strictly smaller gives 1, otherwise 0.

[
  {
    "compound": "COc1c(-c2ccccc2)c(N(C)C)nc2ccc(C(O)(c3ccncc3)c3cncn3C)cc12 (stereo not shown)",
    "groupLabel": 1
  },
  {
    "compound": "CN(C)c1nc2ccc(C(O)(c3cccnc3)c3cccnc3)cc2c(Cl)c1-c1ccccc1",
    "groupLabel": 1
  },
  {
    "compound": "COc1nc2c(C)cc(C(O)(c3ccc(C(F)(F)F)nc3)c3cncn3C)cc2c(Cl)c1-c1ccc(OC(F)(F)F)cc1 (single isomer, unassigned) [Example 183b]",
    "groupLabel": 0
  },
  {
    "compound": "CCc1nc2ccc(C(O)(c3ccncc3)c3cncn3C)cc2c(N(C)C)c1-c1ccccc1 (stereo not shown)",
    "groupLabel": 0
  },
  {
    "compound": "OC(c1ccccc1)(c1cccnc1)c1ccc2nc(C(F)(F)F)c(-c3ccccc3)c(C(F)(F)F)c2c1 (stereo not shown)",
    "groupLabel": 0
  },
  {
    "compound": "COc1cc(C(O)(c2ccc3nc(Cl)c(-c4ccccc4)c(Cl)c3c2)c2cncn2C)ccn1 (stereo not shown)",
    "groupLabel": 1
  }
]

Now consider the entry below.
// query Lab note: IC50 threshold 60 nM. Does this compound come in strictly under it? Cn1cncc1C(O)(c1ccncc1)c1ccc2nc(N3CCOCC3)c(-c3ccccc3)c(Cl)c2c1 (stereo not shown)
// result 0

Where these numbers come from: patent US9309222B2
